Values compiled from patent US20200197418A1.

System: Agxt1-KO mouse hepatocyte cultures
protocolNotes: Oxalate reduction assay in primary hepatocyte cultures from hyperoxaluric mice, glycolate-loaded
Assay type: cell-based
testConditions: 72 h after treatment; Agxt1-KO mouse hepatocytes, 5 mM glycolate; read-out: EC50 (72 h), reduced production of oxalate
property: EC50 (µM)
Please state the figure in µM; there is no need to write the unit.

Lookup: Param item = O=C(O)c1nnsc1Sc1ccc(Cl)cc1 [CCPST, reference compound] ; retrieve measured EC50.
Found: 33.9
